# SUBJECT_OF_TEST: human AMPK (full-length γ1, β1 and α1 subunits) (Homo sapiens (Human), UniProt Q13131+Q9Y478)
# Sequence (Q13131 whole entry): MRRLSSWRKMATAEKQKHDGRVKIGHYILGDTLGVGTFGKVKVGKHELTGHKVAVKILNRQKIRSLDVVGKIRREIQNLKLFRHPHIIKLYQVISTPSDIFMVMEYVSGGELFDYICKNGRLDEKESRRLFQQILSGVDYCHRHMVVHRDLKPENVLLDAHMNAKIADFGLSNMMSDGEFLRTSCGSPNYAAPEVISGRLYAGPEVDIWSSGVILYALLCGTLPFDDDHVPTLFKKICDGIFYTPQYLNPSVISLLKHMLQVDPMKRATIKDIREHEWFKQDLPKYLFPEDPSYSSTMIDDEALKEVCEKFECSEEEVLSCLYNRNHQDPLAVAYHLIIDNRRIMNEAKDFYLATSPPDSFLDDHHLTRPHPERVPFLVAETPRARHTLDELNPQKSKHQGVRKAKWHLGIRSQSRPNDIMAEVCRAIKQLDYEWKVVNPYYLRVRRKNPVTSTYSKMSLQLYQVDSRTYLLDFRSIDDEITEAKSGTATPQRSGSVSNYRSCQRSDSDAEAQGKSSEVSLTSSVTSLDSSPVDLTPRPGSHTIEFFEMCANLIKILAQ
# Sequence (Q9Y478 whole entry): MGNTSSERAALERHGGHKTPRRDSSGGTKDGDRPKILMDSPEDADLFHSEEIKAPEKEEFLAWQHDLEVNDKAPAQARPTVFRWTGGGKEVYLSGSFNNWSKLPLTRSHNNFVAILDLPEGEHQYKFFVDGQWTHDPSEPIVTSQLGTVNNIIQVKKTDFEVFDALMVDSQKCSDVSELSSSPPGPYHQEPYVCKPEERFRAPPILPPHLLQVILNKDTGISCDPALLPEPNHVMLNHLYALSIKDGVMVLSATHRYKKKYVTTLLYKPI
# Sequence (P54619 whole entry partner): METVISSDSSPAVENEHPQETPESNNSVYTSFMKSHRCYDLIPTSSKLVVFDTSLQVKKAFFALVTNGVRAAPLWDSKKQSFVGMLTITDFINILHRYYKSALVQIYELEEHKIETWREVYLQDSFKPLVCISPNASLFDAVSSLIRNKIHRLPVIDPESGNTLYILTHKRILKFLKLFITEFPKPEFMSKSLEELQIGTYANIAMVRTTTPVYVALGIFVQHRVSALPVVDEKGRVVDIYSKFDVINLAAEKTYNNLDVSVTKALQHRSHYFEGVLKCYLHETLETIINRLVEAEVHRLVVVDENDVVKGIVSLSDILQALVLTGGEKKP
# TEST_DETAILS: AMPK in vitro biochemical assay (33P-based, SAMS peptide, PP2A dephosphorylation)
# MEASUREMENT_CONDITIONS: counts as % of positive control wells (enzyme, allosteric activator or AMP, PP2A and substrate); read-out: Maximum
REPORTED_METRIC: Emax (%)

Observe how each entry below is paired with its result.
{"columns": ["STRUCTURE", "UNIT_ABBREVIATION", "Emax"],
 "data": [
  ["O=C(O)c1c[nH]c2cc(Cl)c(-c3ccc(OCCCN4CCOCC4=O)cc3)cc12", "%", 74],
  ["CC(C)c1ccc(-c2cc3c(C(=O)O)c[nH]c3cc2Cl)cc1", "%", 123]
]}

[A] O=C(O)c1c[nH]c2cc(Cl)c(-c3ccc(C4(C(=O)O)CC4)cc3)cc12
[B] O=C(O)c1c[nH]c2cc(Cl)c(-c3ccc4c(c3)OC[C@@H](CO)O4)cc12
Could you point out whether the larger Emax belongs to A or to B ? Provide the label of your selected option as the answer.
B

----------
# SUBJECT_OF_TEST: human AMPK (full-length γ1, β1 and α1 subunits) (Homo sapiens (Human), UniProt Q13131+Q9Y478)
# TEST_DETAILS: AMPK in vitro biochemical assay (33P-based, SAMS peptide, PP2A dephosphorylation)
# MEASUREMENT_CONDITIONS: counts as % of positive control wells (enzyme, allosteric activator or AMP, PP2A and substrate); read-out: Maximum
REPORTED_METRIC: Emax (%)

{"columns": ["COMPOUND", "Emax (%)"],
 "data": [
  ["O=C(O)c1c[nH]c2cc(Cl)c(-c3ccc(OCCCO)c(F)c3)cc12", 107],
  ["CC(C)(CO)c1ccc(-c2c(F)cc3[nH]cc(C(=O)O)c3c2F)cc1", 74],
  ["COc1nc(N2CC[C@@H](O)C2)ccc1-c1cc2c(C(=O)O)c[nH]c2cc1Cl", 106],
  ["O=C(O)c1c[nH]c2cc(Cl)c(-c3cnc(N4CCOCC4)nc3)cc12", 104]
]}

[a] O=C(O)c1c[nH]c2cc(Cl)c(-c3ccc(C4CCCOC4)cc3)cc12 (centres unmarked)
[b] CC(=O)N1CCN(c2ccc(-c3cc4c(C(=O)O)n[nH]c4cc3Cl)cc2)CC1
Endpoint returns the identifier whose Emax is numerically larger, either a or b . Give the chosen item's label as your response.
a
(a: 109%, b: 60%)

[a] CC(=O)N1CCC(c2ccc(-c3cc4c(C(=O)O)c[nH]c4cc3Cl)cc2)C1 (centres unmarked)
[b] O=C(O)c1c[nH]c2cc(Cl)c(-c3ccc(C4(CO)CCC4)cc3F)cc12
[c] Cc1cc(-c2cc3c(C(=O)O)c[nH]c3cc2Cl)ccc1C1(O)CCC1
Rank order required: Emax, descending. Output spec: labels arranged per the requested ranking.
b, a, c
(b: 142%, a: 92%, c: 62%)

[A] CC(=O)N1CCC(c2ccc(-c3cc4c(C(=O)O)c[nH]c4cc3Cl)cc2)CC1
[B] O=C(O)c1c[nH]c2cc(Cl)c(-c3ccc(-c4ccccc4)cc3)cc12
Which numeric Emax is bigger, that of A or that of B ? Answer format: the label of the selected item.
A
(A: 103%, B: 68%)

----------
# SUBJECT_OF_TEST: human AMPK (full-length γ1, β1 and α1 subunits) (Homo sapiens (Human), UniProt Q13131+Q9Y478)
# TEST_DETAILS: AMPK in vitro biochemical assay (33P-based, SAMS peptide, PP2A dephosphorylation)
# MEASUREMENT_CONDITIONS: activation of phosphorylated AMPK; 33P-ATP, SAMS peptide, PP2A treatment; 4-parameter fit
pEC50: −log10 of the molar value.
REPORTED_METRIC: pEC50

{"columns": ["COMPOUND", "pEC50"],
 "data": [
  ["O=C(O)c1n[nH]c2cc(Cl)c(-c3ccc4c(c3)CCO4)cc12 [Example 113]", 6.46],
  ["CC(=O)N1CC(COc2ccc(-c3cc4c(C(=O)O)c[nH]c4cc3Cl)cc2)C1 [Example 9]", 7.15],
  ["COc1ccc(-c2cc3c(C(=O)O)n[nH]c3cc2C)c(F)c1 [Example 98]", 5.98]
]}

[I] O=C(O)c1c[nH]c2cc(Cl)c(-c3ccc(OCCO)cc3F)cc12 [Example 86]
[II] Cc1cc(C2(O)CCC2)ccc1-c1cc2c(C(=O)O)c[nH]c2cc1Cl [Example 40]
I would appreciate it if you could say which entry, I or II , has the lower pEC50 value. Answer with the label corresponding to your selection.
II
(II: 6.09, I: 7.00)

[P] COC[C@@H](C)Oc1ccc(-c2cc3c(C(=O)O)c[nH]c3cc2Cl)cc1 [Example 158]
[Q] O=C(O)c1c[nH]c2cc(Cl)c(-c3ccc(C4(CO)CCC4)cc3)cc12 [Example 72]
Hi there! Just curious which has the higher pEC50 between P and Q . Kindly state the label of the option you pick.
Q
(Q: 8.37, P: 6.90)

[1] CC(C)(CO)c1ccc(-c2cc3c(C(=O)O)c[nH]c3cc2Cl)cc1O [Example 148]
[2] O=C(O)c1c[nH]c2cc(F)c(-c3ccc(C4(CO)CCC4)cc3F)cc12 [Example 165]
For this pair, 1 and 2 , which shows a numerically higher pEC50? Reply with the label of the item you choose.
1
(1: 8.18, 2: 7.50)

----------
# SUBJECT_OF_TEST: human AMPK (full-length γ1, β1 and α1 subunits) (Homo sapiens (Human), UniProt Q13131+Q9Y478)
# TEST_DETAILS: AMPK in vitro biochemical assay (33P-based, SAMS peptide, PP2A dephosphorylation)
# MEASUREMENT_CONDITIONS: activation of phosphorylated AMPK; 33P-ATP, SAMS peptide, PP2A treatment; 4-parameter fit
pEC50: −log10 of the molar value.
REPORTED_METRIC: pEC50

{"columns": ["COMPOUND", "pEC50"],
 "data": [
  ["CC(=O)c1ccc(-c2cc3c(C(=O)O)n[nH]c3cc2Cl)cc1", 6.91]
]}

[I] N#Cc1cc2[nH]cc(C(=O)O)c2cc1-c1ccc(OCCO)cc1
[II] CNC(=O)COc1ccc(-c2cc3c(C(=O)O)c[nH]c3cc2Cl)cc1
Endpoint returns whichever of I and II has the numerically higher pEC50. Identify your selection by its label.
II
(II: 6.67, I: 6.08)

[A] O=C(O)c1c[nH]c2cc(Cl)c(-c3ccc(C4CCN4)cc3)cc12 (centres unmarked)
[B] COC1CCN(CCCOc2ccc(-c3cc4c(C(=O)O)c[nH]c4cc3Cl)cc2)CC1
Which gives the smaller pEC50 number: A or B ? Use the label to indicate which entry you chose.
A
(A: 6.36, B: 7.21)

[A] COc1cc(-c2cc3c(C(=O)O)c[nH]c3cc2Cl)ccc1OC[C@@H]1CCCN1
[B] O=C(O)c1c[nH]c2cc(F)c(-c3ccc(C4(CO)CCC4)cc3)c(F)c12 [Example 167]
[C] CC(C)(O)c1ccc(-c2cc3c(C(=O)O)n[nH]c3cc2Cl)cc1
Please put the entries in order of rising pEC50. Response field: labels, in requested order.
A, C, B
(A: 6.68, C: 7.47, B: 8.03)

----------
# SUBJECT_OF_TEST: human AMPK (full-length γ1, β1 and α1 subunits) (Homo sapiens (Human), UniProt Q13131+Q9Y478)
# TEST_DETAILS: AMPK in vitro biochemical assay (33P-based, SAMS peptide, PP2A dephosphorylation)
# MEASUREMENT_CONDITIONS: activation of phosphorylated AMPK; 33P-ATP, SAMS peptide, PP2A treatment; 4-parameter fit
pEC50: −log10 of the molar value.
REPORTED_METRIC: pEC50

[A] O=C(O)c1c[nH]c2cc(Cl)c(-c3ccc(OCC4CCO4)cc3)cc12 (stereo not drawn)
[B] O=C(O)c1c[nH]c2cc(Cl)c(-c3ccc(OCCN4CCOCC4)cc3)cc12
[C] O=C(O)c1c[nH]c2cc(Cl)c(-c3ccc(-c4ccccc4O)cc3)cc12
Put the above entries in order of falling pEC50. # format: label list in the order the request specifies
C, A, B

[A] N#Cc1cc2[nH]cc(C(=O)O)c2cc1-c1ccc(C2(CO)CC2)cc1
[B] O=C(O)c1c[nH]c2cc(F)c(-c3ccc(OCCC4CCOC4)cc3)c(F)c12 (stereo not drawn)
Compare reported pEC50 values for A and B . Which is lower? Pick one; state its label.
B
(B: 6.96, A: 7.80)

[a] O=C(O)c1c[nH]c2cc(Cl)c(-c3ccc(C4(CO)CC4)cc3)cc12
[b] O=C(O)c1c[nH]c2cc(F)c(-c3ccc(OCCC4CCCO4)cc3)c(F)c12 (stereo not drawn)
// pick larger pEC50 from pair: a vs b Write down the label attached to your selection.
a
(a: 9.30, b: 6.92)

[I] O=C(O)c1n[nH]c2cc(Cl)c(-c3cccc(O)c3)cc12
[II] CC(=O)N1CCN(c2ccc(-c3cc4c(C(=O)O)n[nH]c4cc3Cl)cc2)CC1
[III] COc1ccc(-c2cc3c(C(=O)O)c[nH]c3cc2Cl)c(F)c1
[IV] O=C(O)c1c[nH]c2cc(F)c(-c3ccc(-c4ccccc4O)cc3)cc12
Arrange the 4 entries by pEC50 so the values rise. Please express your ranking as an ordered list of the labels.
I, III, II, IV
(I: 5.88, III: 7.07, II: 7.36, IV: 8.19)

[I] O=C(O)c1c[nH]c2cc(Br)c(-c3ccc(-c4ccccc4O)cc3)cc12
[II] O=C(O)c1c[nH]c2cc(Cl)c(-c3ccc(CCCO)cc3)cc12
[III] O=C(O)c1c[nH]c2cc(Cl)c(-c3ccc(C4(CO)COC4)cc3)cc12
[IV] CC(C)(CO)c1ccc(-c2cc3c(C(=O)O)n[nH]c3cc2Cl)cc1
[V] O=C(O)c1c[nH]c2cc(Cl)c(-c3ccc(CCO)cc3)cc12
Reorder: pEC50, max to min. Form entry: ranked labels (order as requested).
I, V, IV, III, II

[I] NC(=O)C1(c2ccc(-c3cc4c(C(=O)O)n[nH]c4cc3Cl)cc2)CCC1
[II] COc1cc(-c2cc3c(C(=O)O)n[nH]c3cc2Cl)ccc1C1(O)CCC1
Which numeric pEC50 is bigger, that of I or that of II ? To answer, give the label that identifies your chosen option.
II
